Test: Sheep pharmacokinetics (ELF and plasma): nebulized inhaled nintedanib, fixed combination with pirfenidone, oral nintedanib
Assay type: in vivo
Details: female, Merino cross-bred, sheep, epithelial lining fluid (ELF), inhaled or intranasal; inhaled nebulized, 2 mg; read-out: ELF T1/2 (α) (converted)
MEASURED PROPERTY: half-life (min)

> print(dat)
                              smiles.string  reported.measurement
1  COC(=O)c1ccc2c(c1)NC(=O)/C2=C(\Nc1ccc(N(C)C(=O)CN2CCN(C)CC2)cc1)c1ccccc1                    15

---

Assay: Clinical study in healthy volunteers: inhaled nebulized vs oral nintedanib (ELF and plasma pharmacokinetics, safety)
Format: in vivo
Settings: human, plasma; oral tablet 150 mg
MEASURED PROPERTY: Tmax (h)

> print(dat)
                              smiles.string  unit.abbreviation  reported.measurement
1  COC(=O)c1ccc2c(c1)NC(=O)/C2=C(\Nc1ccc(N(C)C(=O)CN2CCN(C)CC2)cc1)c1ccccc1                  h                   7.8

---

Experiment: Sheep pharmacokinetics (ELF and plasma): nebulized inhaled nintedanib, fixed combination with pirfenidone, oral nintedanib
Assay type: in vivo
Details: female, Merino cross-bred, sheep, plasma, inhaled or intranasal; inhaled nebulized, 2 mg; read-out: Plasma T1/2 (α) (converted)
MEASURED PROPERTY: half-life

> print(dat)
                              smiles.string  measured.property  reported.measurement
1  COC(=O)c1ccc2c(c1)NC(=O)/C2=C(\Nc1ccc(N(C)C(=O)CN2CCN(C)CC2)cc1)c1ccccc1          half-life                15 min

---

Experiment: Sheep pharmacokinetics (ELF and plasma): nebulized inhaled nintedanib, fixed combination with pirfenidone, oral nintedanib
Type: in vivo
Details: female, Merino cross-bred, sheep, epithelial lining fluid (ELF), inhaled or intranasal, 0.06 mg/kg, inhaled nebulized monotherapy, 2 mg (0.06 mg/kg); Table 19; read-out: ELF Cmax
MEASURED PROPERTY: Cmax

> print(dat)
                                   molecule  reported.measurement
1  COC(=O)c1ccc2c(c1)NC(=O)/C2=C(\Nc1ccc(N(C)C(=O)CN2CCN(C)CC2)cc1)c1ccccc1 [Nintedanib]            7880 ng/mL

---

Assay: Clinical study in healthy volunteers: inhaled nebulized vs oral nintedanib (ELF and plasma pharmacokinetics, safety)
Format: in vivo
Conditions: human, plasma; oral tablet 150 mg; read-out: Plasma AUC
MEASURED PROPERTY: AUC (ng·h/mL)

> print(dat)
                              smiles.string  reported.measurement
1  COC(=O)c1ccc2c(c1)NC(=O)/C2=C(\Nc1ccc(N(C)C(=O)CN2CCN(C)CC2)cc1)c1ccccc1                   163

---

Assay: Sheep pharmacokinetics (ELF and plasma): nebulized inhaled nintedanib, fixed combination with pirfenidone, oral nintedanib
Assay type: in vivo
Details: female, Merino cross-bred, sheep, plasma, inhaled or intranasal, 2 mg, inhaled nebulized monotherapy, 2 mg; Table 19; read-out: Plasma Cmax
MEASURED PROPERTY: Cmax (ng/mL)

> print(dat)
                                   molecule  measured.property  unit.abbreviation  reported.measurement
1  COC(=O)c1ccc2c(c1)NC(=O)/C2=C(\Nc1ccc(N(C)C(=O)CN2CCN(C)CC2)cc1)c1ccccc1 [Nintedanib]               Cmax              ng/mL                   3.9

---

Assay: Clinical study in healthy volunteers: inhaled nebulized vs oral nintedanib (ELF and plasma pharmacokinetics, safety)
Assay type: in vivo
Details: human, plasma, inhaled or intranasal; inhaled nebulized liquid 2 mg
MEASURED PROPERTY: Tmax (min)

> print(dat)
                              smiles.string  reported.measurement
1  COC(=O)c1ccc2c(c1)NC(=O)/C2=C(\Nc1ccc(N(C)C(=O)CN2CCN(C)CC2)cc1)c1ccccc1                    12

---

Test: Sheep pharmacokinetics (ELF and plasma): nebulized inhaled nintedanib, fixed combination with pirfenidone, oral nintedanib
Assay type: in vivo
Conditions: female, Merino cross-bred, sheep, plasma, po, 75 mg, oral, 75 mg; read-out: Plasma AUC
MEASURED PROPERTY: AUC (ng·h/mL)

> print(dat)
                              smiles.string  reported.measurement
1  COC(=O)c1ccc2c(c1)NC(=O)/C2=C(\Nc1ccc(N(C)C(=O)CN2CCN(C)CC2)cc1)c1ccccc1                    58

---

Test: Clinical study in healthy volunteers: inhaled nebulized vs oral nintedanib (ELF and plasma pharmacokinetics, safety)
Type: in vivo
Settings: human, epithelial lining fluid (ELF); oral tablet 150 mg; read-out: ELF AUC
MEASURED PROPERTY: AUC

> print(dat)
                              smiles.string  measured.property  reported.measurement
1  COC(=O)c1ccc2c(c1)NC(=O)/C2=C(\Nc1ccc(N(C)C(=O)CN2CCN(C)CC2)cc1)c1ccccc1                AUC          1200 ng·h/mL

---

Assay: Clinical study in healthy volunteers: inhaled nebulized vs oral nintedanib (ELF and plasma pharmacokinetics, safety)
Type: in vivo
Conditions: human, plasma, inhaled or intranasal; inhaled nebulized liquid 2 mg; read-out: Plasma AUC
Text: To characterize how dry powder nintedanib may perform in humans, a clinical study was first conducted comparing inhaled nebulized and oral nintedanib in healthy volunteers.
MEASURED PROPERTY: AUC (ng·h/mL)

> print(dat)
                              smiles.string  measured.property  unit.abbreviation  reported.measurement
1  COC(=O)c1ccc2c(c1)NC(=O)/C2=C(\Nc1ccc(N(C)C(=O)CN2CCN(C)CC2)cc1)c1ccccc1                AUC            ng·h/mL                     4

---

Assay: Sheep pharmacokinetics (ELF and plasma): nebulized inhaled nintedanib, fixed combination with pirfenidone, oral nintedanib
Format: in vivo
Settings: female, Merino cross-bred, sheep, plasma, inhaled or intranasal, 2 mg, inhaled nebulized monotherapy, 2 mg; Table 19; read-out: Plasma AUC
MEASURED PROPERTY: AUC (ng·h/mL)

> print(dat)
                              smiles.string  measured.property  unit.abbreviation  reported.measurement
1  COC(=O)c1ccc2c(c1)NC(=O)/C2=C(\Nc1ccc(N(C)C(=O)CN2CCN(C)CC2)cc1)c1ccccc1                AUC            ng·h/mL                     4

---

Test: Sheep pharmacokinetics (ELF and plasma): nebulized inhaled nintedanib, fixed combination with pirfenidone, oral nintedanib
Assay type: in vivo
Conditions: female, Merino cross-bred, sheep, epithelial lining fluid (ELF), inhaled or intranasal, 2 mg, inhaled nebulized monotherapy, 2 mg; Table 19; read-out: ELF AUC
Method: All animals had received standard vaccinations and were treated orally with anthelminthic (in line with standard management practices) prior to arrival at the animal facility to eliminate any worm parasites before experimentation. […] BALF sampling details (volumes, exact time of collection) were recorded and samples immediately frozen on dry ice, then stored at −80° C. prior to shipment for drug content analyses.
MEASURED PROPERTY: AUC

> print(dat)
                              smiles.string  reported.measurement
1  COC(=O)c1ccc2c(c1)NC(=O)/C2=C(\Nc1ccc(N(C)C(=O)CN2CCN(C)CC2)cc1)c1ccccc1          7300 ng·h/mL

---

Experiment: Sheep pharmacokinetics (ELF and plasma): nebulized inhaled nintedanib, fixed combination with pirfenidone, oral nintedanib
Format: in vivo
Details: female, Merino cross-bred, sheep, plasma, po, 75 mg, oral, 75 mg; read-out: Plasma Cmax
MEASURED PROPERTY: Cmax (ng/mL)

> print(dat)
                                   molecule  unit.abbreviation  reported.measurement
1  COC(=O)c1ccc2c(c1)NC(=O)/C2=C(\Nc1ccc(N(C)C(=O)CN2CCN(C)CC2)cc1)c1ccccc1 [Nintedanib]              ng/mL                   3.6

---

Experiment: Clinical study in healthy volunteers: inhaled nebulized vs oral nintedanib (ELF and plasma pharmacokinetics, safety)
Assay type: in vivo
Settings: human, epithelial lining fluid (ELF); oral tablet 150 mg; read-out: ELF Cmax
MEASURED PROPERTY: Cmax (ng/mL)

> print(dat)
                              smiles.string  measured.property  reported.measurement
1  COC(=O)c1ccc2c(c1)NC(=O)/C2=C(\Nc1ccc(N(C)C(=O)CN2CCN(C)CC2)cc1)c1ccccc1               Cmax                  72.7
